- measuredTarget: T1, SAVSBPM18 engineered streptavidin (S27A, G48T) (UniProt P22629 25-183, S27A | G48T)
- T1 construct: streptavidin with the double mutation S27A, G48T; Secreted by means of the B. subtilis levansucrase (SacB) signal peptide; also called streptavidin SAVSBPM18; source: B. subtilis WB800[pSAVSBPM18], secreted, purified (biotin-agarose)
- T1 sequence (P22629 25-183 S51A/G72T): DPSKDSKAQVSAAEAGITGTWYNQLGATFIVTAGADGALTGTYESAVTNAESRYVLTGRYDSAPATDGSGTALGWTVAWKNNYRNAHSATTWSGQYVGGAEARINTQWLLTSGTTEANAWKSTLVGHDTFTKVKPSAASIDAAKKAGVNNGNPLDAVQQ
- experimentalDetails: SPR; BIAcoreX; synthetic SBP peptide thiol-coupled by its N-terminal cysteine to a CM5 chip, streptavidin variant as analyte; blank flow cell as reference
- appliedConditions: both partners purified
observedProperty: Kd (nM)
The response must be a number in nM with no trailing unit.

input: Query (binder): synthetic 59-amino acid peptide with the full length SBP tag (N-terminal cysteine for thiol coupling to the CM5 chip, then the 20-amino-acid glycine-rich linker; the limits are worked out as 1 Cys + 20 linker + 38 SBP = 59; also called SBP tag (peptide); synthetic SBP tag; source: synthetic peptide (Peptide 2.0 Inc.)) peptide: CGGGGSTSGGSTSGGSTSGGGMDEKTTGWRGGHVVEGLAGELEQLRARLEHHPQGQREP ; field requested: Kd
output: 7.67
